Data credit: patent US20250145697A1

target entity: T1, recombinant alipidated human ApoE4 (human, UniProt P02649 19-317)
T1 construct: mature; full length recombinant protein made in E. coli or bought; biotinylated for SPR; position 112 is counted on the mature protein, not on the precursor entry; also called recApoE; non-lipidated ApoE4
T1 sequence (P02649 19-317 C130R): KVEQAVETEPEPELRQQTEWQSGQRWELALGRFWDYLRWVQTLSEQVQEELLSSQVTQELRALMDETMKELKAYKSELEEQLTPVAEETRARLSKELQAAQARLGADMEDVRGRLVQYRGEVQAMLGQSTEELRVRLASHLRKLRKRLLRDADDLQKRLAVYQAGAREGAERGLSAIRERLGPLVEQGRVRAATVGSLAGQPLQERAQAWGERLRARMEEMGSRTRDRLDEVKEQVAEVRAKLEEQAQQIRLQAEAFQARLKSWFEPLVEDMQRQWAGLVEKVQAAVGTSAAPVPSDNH
run description: direct ELISA on coated recombinant alipidated ApoE (0.5 ug/ml)
measured property: pEC50
Remember the convention: pEC50 equals -log10 of concentration in molar.

// query pEC50 value for entry HJ1536 (antibody, V domains shown, murine monoclonal antibody from hybridoma) VH: EVQFVESGGGLVQPKGSLKLSCEVSGFSFNTYAMNWVRQAPGKGLEWVARIRNKTNNYATFYADSVKDRFTISRDDSKNTLYLQMNNLKAEDTAMYFCASPYDGSFAYWGQGTLVTVSA VL: DIQMNQSPSSLSASLGDTITITCHASQNINIWLSWYQQKPGNIPKLLIYKASNLHTGVPSRFSGSGSGTGFTLTISSLQPEDIATYYCQQGHSYPLTFGGGTKLEIKR
10.30
